Data provenance is patent US20240327534A1.

Target: T1, human BCMA protein (human, UniProt Q02223 1-54, limits assumed)
T1 sequence: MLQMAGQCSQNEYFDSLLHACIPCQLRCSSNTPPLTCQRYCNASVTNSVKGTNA
Assay: affinity to human BCMA protein, method not stated
Would you mind telling me the reported Kd of each entry?
Numbers only; they are read as nM.

Identify the reported Kd for the following entry. BCMA targeting trispecific protein 02C05 (other, trispecific; not shown: anti-albumin domain, anti-CD3 domain and the linkers of the trispecific (TriTAC) chain; the C-terminal 6xHis tag follows these missing domains and is left out) VHH: EVQLVESGGGLVQPGRSLTLSCAASTNIFSESPMGWYRQAPGKQRELVAAIHGFTTLYADSVKGRFTISRDNAKNSIYLQMNSLRPEDTALYYCNKVPWGDYHPRNVTWGQGTQVTVSS 15.6

Identify the reported Kd for the following entry. BCMA targeting trispecific protein 02C06 (other, not shown: large carriers; small tags and cut ends, trispecific) VHH: EVQLVESGGGLVQPGRSLTLSCAASTNIFSTSPMGWYRQAPGKQRELVAAIHGTSTLYADSVKGRFTISRDNAKNSIYLQMNSLRPEDTALYYCNKVPWGDYHPGNVYWGQGTQVTVSS 6.9
